# EXPERIMENTAL_SYSTEM: ProLink tagged human APJ (Apelin Receptor) in CHO-K1 AGTRL1 β-Arrestin cells (human, UniProt P35414 1-380)
# Sequence (P35414 whole entry): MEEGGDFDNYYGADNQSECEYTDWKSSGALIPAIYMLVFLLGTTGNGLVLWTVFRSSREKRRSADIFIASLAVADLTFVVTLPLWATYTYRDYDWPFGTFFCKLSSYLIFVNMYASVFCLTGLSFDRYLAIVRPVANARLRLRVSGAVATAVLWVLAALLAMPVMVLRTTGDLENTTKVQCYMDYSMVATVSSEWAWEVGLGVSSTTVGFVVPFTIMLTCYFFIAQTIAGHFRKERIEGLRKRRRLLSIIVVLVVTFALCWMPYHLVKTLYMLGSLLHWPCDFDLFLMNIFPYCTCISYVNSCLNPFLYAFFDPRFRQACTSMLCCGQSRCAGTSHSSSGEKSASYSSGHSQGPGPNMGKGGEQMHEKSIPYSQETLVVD
# EXPERIMENT_SUMMARY: cell-based or functional assay
Non-standard residues stand in square brackets, D forms with d. Primed or numbered codes have the meaning given here. No end group written: not given here. PEG12″ = PEG12 group on the N-terminal Lys
Hi there, I'd appreciate the recorded β-Arrestin recruitment, Percent of Apelin-13 Control Activity (10 µM peptide) for every entry that follows.

Illustrative cases are given below, each with its answer.
[PEG12″]KRRIIGIVFQCLCG[dA] (cysteine pairing not given here) [SEQ ID NO 42]    8 % of Apelin-13 control
MMGMVFQSLCG[dA] [SEQ ID NO 49]    1 % of Apelin-13 control
RMMGMVFQS [SEQ ID NO 52]    0 % of Apelin-13 control

Batch request: β-Arrestin recruitment, Percent of Apelin-13 Control Activity (10 µM peptide) for each of the following binders.
1. RRMMGMVFQSLCG[dA]-NH2 [SEQ ID NO 62]
2. RRMEVYQCLCG[dA] (cysteine pairing not given here) [SEQ ID NO 31]
3. RRMVFQCLCG[dA] (cysteine pairing not given here) [SEQ ID NO 19]
4. RRMMGMVFQCLEG[dA] [SEQ ID NO 14]
5. MMGMVFQ [SEQ ID NO 46]
6. MRRMMGMVFQCLCGL [SEQ ID NO 7]
7. RRMEVYQCLEG[dA] [SEQ ID NO 32]
8. KRRMMGMVFQCLCGA ((PEG12) on the N-terminal K (position 1); (dA) D-alanine at position 15) [SEQ ID NO 20]

1: 2 % of Apelin-13 control; 2: 0 % of Apelin-13 control; 3: 1 % of Apelin-13 control; 4: 0 % of Apelin-13 control; 5: 0 % of Apelin-13 control; 6: 91 % of Apelin-13 control; 7: 0 % of Apelin-13 control; 8: 1 % of Apelin-13 control

Batch request: β-Arrestin recruitment, Percent of Apelin-13 Control Activity (10 µM peptide) for each of the following binders.
1. RRMMGMVFQELCG[dA] [SEQ ID NO 13]
2. RRLLGLVFQSLCG[dA] [SEQ ID NO 33]
3. RMMGMVF [SEQ ID NO 50]

1 % of Apelin-13 control
9 % of Apelin-13 control
0 % of Apelin-13 control
